Data credit: ChEMBL document CHEMBL1145076

- Tested On: TGF-beta receptor type-1 (Homo sapiens)
- Sequence (P36897 whole entry): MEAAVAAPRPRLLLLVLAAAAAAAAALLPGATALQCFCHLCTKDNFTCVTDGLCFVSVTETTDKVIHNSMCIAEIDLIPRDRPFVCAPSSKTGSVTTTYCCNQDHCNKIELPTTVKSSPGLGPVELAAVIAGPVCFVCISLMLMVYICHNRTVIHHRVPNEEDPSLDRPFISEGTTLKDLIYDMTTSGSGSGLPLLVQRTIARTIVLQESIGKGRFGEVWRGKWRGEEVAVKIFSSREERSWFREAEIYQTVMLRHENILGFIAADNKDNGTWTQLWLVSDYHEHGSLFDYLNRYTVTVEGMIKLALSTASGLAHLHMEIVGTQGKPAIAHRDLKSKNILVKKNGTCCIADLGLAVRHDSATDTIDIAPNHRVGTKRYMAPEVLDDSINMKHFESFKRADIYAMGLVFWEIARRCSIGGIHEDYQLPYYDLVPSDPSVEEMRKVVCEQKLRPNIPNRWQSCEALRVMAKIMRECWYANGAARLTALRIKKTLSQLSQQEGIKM
- Test Details: In vitro inhibition of transforming growth factor- beta dependent luciferase growth in mouse fibroblasts (NIH 3T3)
- Type: functional
- Run Conditions: target entry is the homologue from another species
# if measured IC50 < 0.5 µM: fulfilled  # else: not fulfilled

Past entries and their recorded results:
INSERT INTO measurements (record_smiles, category_label) VALUES
  ('Cc1cccc(-c2[nH]ncc2-c2ccc(F)c(F)c2)n1', 'not fulfilled'),
  ('FC(F)(F)c1cccc(-c2n[nH]cc2-c2ccnc3ccccc23)c1', 'not fulfilled'),
  ('Cc1cccc(-c2n[nH]cc2-c2ccnc3ccccc23)n1', 'fulfilled');

Given "c1ccc(Cn2cc(-c3ccnc4ccccc34)c(-c3ccccn3)n2)cc1" , is recorded IC50 strictly lower than 0.5 µM?
not fulfilled

Given "c1ccc(-c2n[nH]c(C3CC3)c2-c2ccnc3ccccc23)nc1" , is recorded IC50 strictly lower than 0.5 µM?
not fulfilled

Given "Cc1cccc(-c2n[nH]c(C)c2-c2ccnc3ccccc23)n1" , is recorded IC50 strictly lower than 0.5 µM?
fulfilled

Given "c1csc(-c2n[nH]cc2-c2ccnc3ccccc23)c1" , is recorded IC50 strictly lower than 0.5 µM?
not fulfilled

Given "Fc1ccc(-c2c[nH]nc2-c2ccccn2)cc1" , is recorded IC50 strictly lower than 0.5 µM?
not fulfilled

Given "Clc1ccc(-c2n[nH]cc2-c2ccnc3ccccc23)nc1" , is recorded IC50 strictly lower than 0.5 µM?
not fulfilled

Given "Cc1cccc(-c2[nH]ncc2-c2ccc(Cl)cc2)n1" , is recorded IC50 strictly lower than 0.5 µM?
fulfilled

Given "Brc1cccc(-c2n[nH]cc2-c2ccnc3ccccc23)n1" , is recorded IC50 strictly lower than 0.5 µM?
fulfilled

Given "Cc1cccc(-c2n[nH]cc2-c2ccc(F)cc2)n1" , is recorded IC50 strictly lower than 0.5 µM?
fulfilled

Given "c1ccc(-c2c[nH]nc2-c2ccccn2)cc1" , is recorded IC50 strictly lower than 0.5 µM?
not fulfilled

Given "c1ccc(-c2n[nH]cc2-c2ccnc3ccccc23)cc1" , is recorded IC50 strictly lower than 0.5 µM?
not fulfilled

Given "COc1ccc(-c2cn(C)nc2-c2cccc(C)n2)cc1" , is recorded IC50 strictly lower than 0.5 µM?
fulfilled

Given "c1ccc(-c2c[nH]nc2-c2ccnc3ccccc23)nc1" , is recorded IC50 strictly lower than 0.5 µM?
not fulfilled

Given "Cc1cccc(-c2n[nH]cc2-c2ccc(O)cc2)n1" , is recorded IC50 strictly lower than 0.5 µM?
fulfilled

Given "Cc1cccc(-c2n[nH]cc2-c2ccccc2)n1" , is recorded IC50 strictly lower than 0.5 µM?
not fulfilled

Given "Fc1ccc(-c2n[nH]cc2-c2ccnc3ccccc23)nc1" , is recorded IC50 strictly lower than 0.5 µM?
fulfilled
